# protocol: Cytotoxicity against human 184B5 cells assessed as reduction in cell viability measured after 72 hrs by MTT assay
# Format: toxicity, cell-based
# experimental conditions: 184b5, 72 h
# maps each entry to its TGI
Write it as a number; the unit µM goes unstated.

Per the records, this compound ( `[SeH]c1ccnc([SeH])n1` ) has TGI equal to 35.3

* * *

# protocol: Cytotoxicity against human PC3 cells assessed as reduction in cell viability measured after 72 hrs by MTT assay
# Format: functional
# experimental conditions: PC-3, 72 h
Would you mind classing the entries by GI50? Ranges: low interval (below 10 µM), middle interval (10 µM to below 80 µM), high interval (80 µM or more)

INSERT INTO measurements (molecule, category) VALUES
  ('CSc1ccnc(SC)n1', 'middle interval');

Problem: Hi, small favor: classify `O=C1c2ccccc2C(=O)N1CS` by its GI50 when you get a moment.
Result: middle interval

Problem: Hi, small favor: classify `N#C[Se]Cc1cc2c(cc1Br)OCO2` by its GI50 when you get a moment.
Result: middle interval

Problem: Hi, small favor: classify `N#C[Se]Cc1c2ccccc2nc2ccccc12` by its GI50 when you get a moment.
Result: middle interval

Problem: Hi, small favor: classify `Sc1ccnc(S)n1` by its GI50 when you get a moment.
Result: high interval

Problem: Hi, small favor: classify `Cc1noc(C)c1C[Se]C#N` by its GI50 when you get a moment.
Result: low interval

Problem: Hi, small favor: classify `N#CSCc1c2ccccc2nc2ccccc12` by its GI50 when you get a moment.
Result: low interval

Problem: Hi, small favor: classify `Sc1ccc2ccccc2n1` by its GI50 when you get a moment.
Result: high interval

Problem: Hi, small favor: classify `[SeH]Cc1cc2c(cc1Br)OCO2` by its GI50 when you get a moment.
Result: middle interval

Problem: Hi, small favor: classify `N#CSc1nc2ccccc2s1` by its GI50 when you get a moment.
Result: middle interval

Problem: Hi, small favor: classify `N#CSCc1cc2c(cc1Br)OCO2` by its GI50 when you get a moment.
Result: middle interval

Where do the numbers come from? From ChEMBL document CHEMBL3871268.
